- ASSAY_COMMENT: chemical genetic growth profiling, strain panel (AID 1159580);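 also: tested at 20 µM; growth read once vehicle control cultures reached saturation at 30 °C; 1 = growth at the plate median or of vehicle wells; lower values mean less growth of the strain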
- TEST_SETTINGS: S. cerevisiae deletion strains, growth OD, locus YKL068W, hits give low values
About 2,000 (36%) of roughly 5,500 compounds were called active. Inconclusive results (about 18%) are left out. The list shows a part of the results.
Measured normalized growth by item
REPORTED_METRIC: normalized growth

[[record]]
compound = "C1CNCCN1"
recorded_value = 0.999

[[record]]
compound = "CNc1ccccc1C(=O)O"
recorded_value = 0.967

[[record]]
compound = "CCCC(C)C1(CC)C(=O)NC(=O)NC1=O (stereo not drawn)"
recorded_value = 1.01

[[record]]
compound = "O=[N+]([O-])c1cc(O)c(O)c([N+](=O)[O-])c1"
recorded_value = 0.974

[[record]]
compound = "O=C(O)c1cccnc1Nc1cccc(C(F)(F)F)c1"
recorded_value = 0.912

[[record]]
compound = "Cc1ccc2cc3c(ccc4ccccc43)c3c2c1CC3"
recorded_value = 0.997

[[record]]
compound = "Nc1ccc(S(=O)(=O)Nc2ccccn2)cc1"
recorded_value = 0.991

[[record]]
compound = "COc1cc2c(c(OC)c1OC)-c1ccc(OC)c(=O)cc1[C@@H](NC(C)=O)CC2"
recorded_value = 1.03

[[record]]
compound = "Oc1c(Br)cc(Br)c2cccnc12"
recorded_value = 0.0659

[[record]]
compound = "CN1C(CC(=O)c2ccccc2)CCCC1CC(O)c1ccccc1 (stereo not drawn)"
recorded_value = 0.994

[[record]]
compound = "COC(=O)Oc1ccccc1C(=O)O"
recorded_value = 1

[[record]]
compound = "O=C(OC1Cc2c(O)cc(O)cc2OC1c1cc(O)c(O)c(O)c1-c1c(C2Oc3cc(O)cc(O)c3CC2OC(=O)c2cc(O)c(O)c(O)c2)cc(O)c(O)c1O)c1cc(O)c(O)c(O)c1 (stereo not drawn)"
recorded_value = 1

[[record]]
compound = "c1ccc2c(c1)cc1ccc3cccc4ccc2c1c34"
recorded_value = 1

[[record]]
compound = "CC(=O)O[C@@H]1CC2C(C)(C)C=CC(=O)[C@]2(C)C2CC[C@@]3(C)[C@H](c4ccoc4)OC(=O)C4OC43[C@@]21C (stereo partly drawn)"
recorded_value = 1

[[record]]
compound = "O=[N+]([O-])c1ccc(O)c([N+](=O)[O-])c1"
recorded_value = 0.354

[[record]]
compound = "Cc1c(O)c(O)cc2c1CC=C1[C@@]2(C)CC[C@@]2(C)C3C[C@](C)(C(=O)O)CC[C@]3(C)CC[C@]12C (stereo partly drawn)"
recorded_value = 0.941

[[record]]
compound = "C[C@H](N)[C@H](O)c1ccc(O)c(O)c1"
recorded_value = 0.986

[[record]]
compound = "COC(=O)C[C@H]1C(C)(C)C(=O)[C@@H]2CC3=C4CC(=O)O[C@@H](c5ccoc5)[C@]4(C)CCC3[C@@]1(C)C2=O (stereo partly drawn)"
recorded_value = 1.01

[[record]]
compound = "CC(=O)O[C@@H]1C[C@@]2(C)[C@H](c3ccoc3)C[C@H]3O[C@]32[C@]2(C)C(=O)C(O)=C3C(C)(C)C(=O)C=C[C@]3(C)C12 (stereo partly drawn)"
recorded_value = 0.962

[[record]]
compound = "COC(=O)[C@]1(C)CC[C@]2(C)CC[C@]3(C)C4=CCc5c(cc(O)c(O)c5C)[C@]4(C)CC[C@@]3(C)C2C1 (stereo partly drawn)"
recorded_value = 0.977

[[record]]
compound = "N[C@@H](Cc1ccc(O)c(O)c1)C(=O)O"
recorded_value = 0.979

[[record]]
compound = "CCN(CC)CCNC(=O)c1cc(S(C)(=O)=O)ccc1OC"
recorded_value = 1.01

[[record]]
compound = "CC(=O)c1c(O)c(C)c(O)c2c1OC1=CC(=O)C(C(C)=O)C(=O)C12C (stereo not drawn)"
recorded_value = 1.01

[[record]]
compound = "C[C@H]1[C@H]2CCC3C4CC=C5C[C@@H](N(C)C)CC[C@]5(C)C4CC[C@@]32CN1C (stereo partly drawn)"
recorded_value = 0.989

[[record]]
compound = "CC(=O)OC1CC(OC(C)=O)C2(C)C(CC(OC(C)=O)C3(C)C2CCC2(C)C(c4ccoc4)CC4OC423)C1(C)C (stereo not drawn)"
recorded_value = 1

[[record]]
compound = "Nc1ncn([C@@H]2O[C@H](CO)[C@@H](O)[C@H]2O)c(=O)n1"
recorded_value = 0.997

[[record]]
compound = "CCC[C@H]1CC2=C(C[C@@H](CC)CC3=C1C(=O)OC3=O)C(=O)OC2=O"
recorded_value = 0.979

[[record]]
compound = "Oc1c(Cl)cc(Cl)c2cccnc12"
recorded_value = 0.0598

[[record]]
compound = "CS(=O)(=O)CCCCN=C=S"
recorded_value = 1.01

[[record]]
compound = "C=CCC1(C(C)CCC)C(=O)N=C(S)NC1=O (stereo not drawn)"
recorded_value = 0.969

[[record]]
compound = "O=C(O[C@@H]1Cc2c(O)cc(O)cc2O[C@@H]1c1cc(O)c(O)c(O)c1-c1c([C@H]2Oc3cc(O)cc(O)c3C[C@H]2O)cc(O)c(O)c1O)c1cc(O)c(O)c(O)c1"
recorded_value = 1.03

[[record]]
compound = "NCC(O)c1ccc(O)cc1 (stereo not drawn)"
recorded_value = 0.984

[[record]]
compound = "O=C(CCCCCCCCCCCCC1CCCC1)Nc1ccc(S(=O)(=O)c2ccc(NC(=O)CCCCCCCCCCCCC3CCCC3)cc2)cc1"
recorded_value = 1

[[record]]
compound = "O=C(O)CCC(=O)C(=O)O"
recorded_value = 1.01

[[record]]
compound = "CC1(C)C(=O)C=CC2(C)C3CCC4(C)C(c5ccoc5)CC5OC54C3C(O)CC12 (stereo not drawn)"
recorded_value = 1.01

[[record]]
compound = "CCCC(C)C1(CC)C(=O)N=C(S)NC1=O (stereo not drawn)"
recorded_value = 0.947

[[record]]
compound = "O=C(O)CCCCC1CCSS1 (stereo not drawn)"
recorded_value = 1.01

[[record]]
compound = "CC(C)NCC(O)c1ccc(O)c(O)c1 (stereo not drawn)"
recorded_value = 0.994


====

- ASSAY_COMMENT: chemical genetic growth profiling, strain panel (AID 1159580);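 also: tested at 20 µM; growth read once vehicle control cultures reached saturation at 30 °C; 1 = growth at the plate median or of vehicle wells; lower values mean less growth of the strain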
- TEST_SETTINGS: S. cerevisiae deletion strains, growth OD, locus YGR229C, strain SMI1, hits give low values
Among all 5,500 compounds or so, about 2,000 (36%) were called active. About 18% were inconclusive and are not listed. The list shows a part of the results.
REPORTED_METRIC: normalized growth

[[record]]
molecule = "Cc1cccc(C)c1NC(=O)C[N+](C)(C)C"
reported_metric = "normalized growth"
recorded_value = 1

[[record]]
molecule = "CC[N+](CC)(CC)CC(=O)Nc1c(C)cccc1C"
reported_metric = "normalized growth"
recorded_value = 1

[[record]]
molecule = "CCn1ccnc1CC1COc2ccccc2O1 (stereo not given)"
reported_metric = "normalized growth"
recorded_value = 0.993

[[record]]
molecule = "CCC(Cc1c(I)cc(I)c(N)c1I)C(=O)O (stereo not given)"
reported_metric = "normalized growth"
recorded_value = 1.02

[[record]]
molecule = "Nc1nc2c(ncn2C2C[C@H](O)[C@@H](CO)O2)c(=O)[nH]1 (stereo not given in full)"
reported_metric = "normalized growth"
recorded_value = 1.01

[[record]]
molecule = "COc1cc(C(O)CN)ccc1O (stereo not given)"
reported_metric = "normalized growth"
recorded_value = 1.01

[[record]]
molecule = "CN1CCCC12NCCc1c2[nH]c2ccccc12 (stereo not given)"
reported_metric = "normalized growth"
recorded_value = 0.997

[[record]]
molecule = "CN1[C@@H](CC(=O)c2ccccc2)CCC[C@H]1C[C@H](O)c1ccccc1"
reported_metric = "normalized growth"
recorded_value = 0.99

[[record]]
molecule = "Nc1ccc(S(=O)(=O)Nc2ccccn2)cc1"
reported_metric = "normalized growth"
recorded_value = 1.02

[[record]]
molecule = "COC(=O)C[C@H]1C(C)(C)C(=O)[C@@H]2CC3=C4CC(=O)O[C@@H](c5ccoc5)[C@]4(C)CCC3[C@@]1(C)C2=O (stereo not given in full)"
reported_metric = "normalized growth"
recorded_value = 1.01

[[record]]
molecule = "CNC[C@@H](O)c1ccc(O)c(O)c1"
reported_metric = "normalized growth"
recorded_value = 0.99

[[record]]
molecule = "CC(C)c1ccc(NC(=S)NC(=O)c2ccc(C(F)(F)F)cc2)cc1"
reported_metric = "normalized growth"
recorded_value = 1.02

[[record]]
molecule = "Nc1ncnc2c1ncn2[C@@H]1O[C@H](CO)[C@@H](O)[C@H]1O"
reported_metric = "normalized growth"
recorded_value = 1

[[record]]
molecule = "CNc1ncnc2c1ncn2[C@H]1C[C@H](OP(=O)(O)O)[C@@H](COP(=O)(O)O)O1"
reported_metric = "normalized growth"
recorded_value = 1.02

[[record]]
molecule = "CCSc1sc(C(=O)OC)c(-c2ccc(Cl)cc2)c1C#N"
reported_metric = "normalized growth"
recorded_value = 0.989


Reference source: PubChem BioAssay AID1159580
